Consider the following molecules; for each one, report its MIC.
# Tested on: Chondrococcus sp K-2
# experiment: MIC by broth serial dilution
# Format: cell-based
# particulars: TY medium pH 7.3, 25°C, 48 hours; read-out: MIC
Answers are plain numbers, in µg/mL.

Solved cases (2 shown):
# molecule, testedTarget, MIC, µg/mL
records = [
    ("C=Cn1cc(C(=O)O)c(=O)c2ccc(N3CCN(C)CC3)cc21 [AT-1493]", "Chondrococcus sp K-2", 3),
    ("CCn1cc(C(=O)O)c(=O)c2cnc(N3CCCC3)nc21 [PA]", "Chondrococcus sp K-2", 0.3),
]

Please look at the items below and tell me MIC for each one, in order.
1. C=Cn1cc(C(=O)O)c(=O)c2ccc(N3CCNCC3)nc21 [AT-1475]
2. C=Cn1cc(C(=O)O)c(=O)c2ccc(N3CCN(CC)CC3)cc21 [AT-1557]

Reply:
[1, 1]

Data origin: patent US3981999A
